# System: MT2
# PROCEDURE_DETAILS: Cytotoxicity against human MT2 cells assessed as inhibition of cell growth
# Type: toxicity, cell-based
Task for the reader: assign each of the following compounds its reported CC50.

Here are 5 compounds together with their reported answers.
C=CC(=O)N(C)CCOc1ccc(Cl)c(Oc2cc(Cl)cc(C#N)c2)c1: 17 µM
N#Cc1cc(Cl)cc(Oc2ccc(Cl)cc2OCCc2ccccc2)c1: > 100 µM
C=CS(=O)(=O)c1cccc(CCOc2cc(Cl)ccc2Oc2cc(Cl)cc(C#N)c2)c1: 16 µM
N#Cc1cc2c(Oc3ccccc3OCCC(=O)N3CCOCC3)cccn2c1: > 100 µM
CN(CCc1ccc(Cl)c(Oc2cc(Cl)cc(C#N)c2)c1)C(=O)CCl: 0.47 µM

Take each entry in turn and give its CC50.
1. N#Cc1cc2c(Oc3ccccc3OCCC(=O)N3CCCC3)cccn2c1
2. C=CS(=O)(=O)CCc1ccc(Cl)c(Oc2cc(Cl)cc(C#N)c2)c1
3. C=CC(=O)NCCOc1cc(Cl)ccc1Oc1cc(Cl)cc(C#N)c1
4. C=CC(=O)Nc1cccc(COc2cc(Cl)ccc2Oc2cc(Cl)cc(C#N)c2)c1
5. C=CC(=O)NCCc1ccc(Cl)c(Oc2cc(Cl)cc(C#N)c2)c1

["> 100 µM", "6 µM", "42 µM", "19 µM", "29 µM"]

###

# Tested on: MT2
# PROCEDURE_DETAILS: Cytotoxicity against human MT2 cells assessed as inhibition of cell growth
# Assay type: toxicity, cell-based
Could you please report measured CC50 for the items listed next?
Answers are plain numbers, in µM.

N#Cc1cc(Cl)cc(Oc2cc(OCCNC(=O)CCl)ccc2Cl)c1: 5.8
C=CC(=O)N(C)CCOc1cc(Cl)ccc1Oc1cccc2cc(C#N)ccc12: 16
C=CC(=O)N(C)CCOc1ccccc1Oc1cccc2cc(C#N)ccc12: 4
C=CC(=O)NCCOc1ccc(Cl)c(Oc2cc(Cl)cc(C#N)c2)c1: 32

Hi, could you look up CC50 for each item in my list?
1. C=CC(=O)n1c(=O)n(CCOc2cc(Cl)ccc2Oc2cc(Cl)cc(C#N)c2)c2ccccc21
2. C=CC(=O)N(C)CCOc1ccc(Cl)c(Oc2cccc3cc(C#N)ccc23)c1
3. N#Cc1cc(Cl)cc(Oc2cc(CCNC(=O)CCl)ccc2Cl)c1
4. CN(C)C(=O)CCOc1ccccc1Oc1cccc2cc(C#N)ccc12
5. C=CC(=O)Nc1cccc(CCOc2cc(Cl)ccc2Oc2cc(Cl)cc(C#N)c2)c1

[8, 25, 2.7, 33, 17]

###

# Test system: MT2
# PROCEDURE_DETAILS: Cytotoxicity against human MT2 cells assessed as inhibition of cell growth
# Assay type: toxicity, cell-based
Cut-off 30 µM on CC50: below means rule met, at or above means rule not met.

Reference set (10 entries):
C=CC(=O)N(C)CCOc1ccc(Cl)c(Oc2cccn3cc(C#N)cc23)c1: rule not met
C=CC(=O)n1c(=O)n(CCOc2ccccc2Oc2cccc3cc(C#N)ccc23)c2ccccc21: rule met
N#Cc1cc(Cl)cc(Oc2ccc(Cl)cc2OCc2ccccc2)c1: rule not met
N#Cc1cc(Cl)cc(Oc2ccc(Cl)cc2OCCc2cccc(S(=O)(=O)F)c2)c1: rule not met
CN(C)C(=O)CCOc1ccccc1Oc1cccn2cc(C#N)cc12: rule not met
C=CC(=O)N(C)CCOc1cc(Cl)ccc1Oc1cc(Cl)cc(C#N)c1: rule met
C=CC(=O)N(C)CCc1ccc(Cl)c(Oc2cc(Cl)cc(C#N)c2)c1: rule not met
C=CC(=O)N(C)CCOc1ccccc1Oc1cc(Cl)cn2cc(C#N)cc12: rule not met
CN(CCOc1ccc(Cl)c(Oc2cc(Cl)cc(C#N)c2)c1)C(=O)CCl: rule met
C=CS(=O)(=O)CCOc1ccc(Cl)c(Oc2cc(Cl)cc(C#N)c2)c1: rule met

Say whether its CC50 is strictly beneath 30 µM. Entry: N#Cc1ccc2c(Oc3ccccc3OCCC(=O)N3CCCC3)cccc2c1
rule met

Proceed to C=CC(=O)N(C)CCOc1ccccc1Oc1cccn2cc(C#N)cc12
rule met
